Ref: the kinase profiling compilation of Christmann-Franck et al. (2016)

Target: DDR1 (human)
Assay: KINOMEscan competition binding
Conditions: compound 10.0 µM
Please respond with met when measured kinase still bound, per cent of control is strictly beneath 90%, and with not met in all other cases.

INSERT INTO results (compound, classification) VALUES
  ('C=CC(=O)Nc1ccc(C(=O)c2sc(Nc3ccc(N4CCN(C)CC4)cc3OC)nc2N)cc1', 'not met'),
  ('O=c1[nH]c2ccccc2n1C1CCN(Cc2ccc(-c3nc4cc5[nH]cnc5cc4nc3-c3ccccc3)cc2)CC1', 'met'),
  ('COc1cc(C)c(Sc2cnc(NC(=O)c3ccc(CNC(C)C(C)C)cc3)s2)cc1C(=O)N1CCN(C(C)=O)CC1 (centres undefined)', 'not met'),
  ('CCN1CCN(Cc2ccc(NC(=O)c3ccc(C)c(/C=C/c4cnc5[nH]ccc5c4OC)c3)cc2C(F)(F)F)CC1', 'met'),
  ('CCc1nc(-c2cccc(C)c2)c(-c2ccnc(NC(=O)c3ccccc3)c2)s1', 'met'),
  ('COc1cc2ncnc(Nc3cccc(Cl)c3)c2cc1OC', 'met'),
  ('CC1=C(C(=O)Nc2cc3cn[nH]c3cc2F)C(c2ccc(C(F)(F)F)cc2)CC(=O)N1 (centres undefined)', 'not met'),
  ('CNC(=O)Nc1ccc(-c2nc(N3CC4CCC(C3)O4)c3cnn(C4CCC5(CC4)OCCO5)c3n2)cc1', 'met'),
  ('N#C/C(=C1/Nc2ccccc2S1)c1ccnc(NCCc2cccnc2)n1', 'not met');

---

Molecular target: MYLK2 (human) (UniProt Q9H1R3)
Sequence (Q9H1R3 whole entry, looked up): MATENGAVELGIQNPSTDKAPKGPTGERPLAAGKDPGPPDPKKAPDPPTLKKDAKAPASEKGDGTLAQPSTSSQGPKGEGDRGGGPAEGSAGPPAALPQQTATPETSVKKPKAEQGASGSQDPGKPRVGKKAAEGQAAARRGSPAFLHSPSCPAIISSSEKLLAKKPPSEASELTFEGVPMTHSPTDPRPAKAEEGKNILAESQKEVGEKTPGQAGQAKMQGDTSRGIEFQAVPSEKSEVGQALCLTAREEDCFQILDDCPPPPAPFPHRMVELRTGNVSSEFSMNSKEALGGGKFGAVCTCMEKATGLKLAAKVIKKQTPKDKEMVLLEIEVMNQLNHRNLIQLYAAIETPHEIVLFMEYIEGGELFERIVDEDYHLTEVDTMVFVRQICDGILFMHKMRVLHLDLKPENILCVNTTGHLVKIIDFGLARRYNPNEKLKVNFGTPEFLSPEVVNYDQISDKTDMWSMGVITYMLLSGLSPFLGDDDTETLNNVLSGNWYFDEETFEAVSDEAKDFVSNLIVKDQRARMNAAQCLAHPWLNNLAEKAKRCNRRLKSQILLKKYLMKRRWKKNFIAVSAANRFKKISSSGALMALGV
Assay: KINOMEscan competition binding
Details: compound 10.0 µM
As shown below, each of these compounds has a reported kinase still bound, per cent of control value.
measured_parameter: kinase still bound, per cent of control (%)

INSERT INTO assay_data (mol_smiles, measured_parameter, reported_result) VALUES
  ('Cc1cn(-c2cc(C(=O)Nc3ccc(C)c(NC(=O)c4ccno4)c3)cc(C(F)(F)F)c2)cn1', 'kinase still bound, per cent of control', 100),
  ('O=c1[nH]c2ccccc2n1C1CCN(Cc2ccc(-c3nc4cc5[nH]cnc5cc4nc3-c3ccccc3)cc2)CC1', 'kinase still bound, per cent of control', 86),
  ('CCCS(=O)(=O)Nc1ccc(F)c(C(=O)c2c[nH]c3ncc(Cl)cc23)c1F', 'kinase still bound, per cent of control', 64),
  ('N#Cc1cc(-c2ccnc(Nc3ccc(-n4cnc(-c5cccnc5)n4)cc3)n2)cc(N2CCOCC2)c1', 'kinase still bound, per cent of control', 56),
  ('COc1cc2ncnc(Nc3cccc(Cl)c3)c2cc1OC', 'kinase still bound, per cent of control', 40),
  ('COc1ccc(N(C(=O)Oc2cc(C(=O)Nc3cccc(C(F)(F)F)c3)ccc2C)c2ccnc(Nc3ccc(N4CCN(C)CC4)cc3)n2)c(OC)c1', 'kinase still bound, per cent of control', 100),
  ('C=CC(=O)Nc1ccc(C(=O)c2sc(Nc3ccc(N4CCN(C)CC4)cc3OC)nc2N)cc1', 'kinase still bound, per cent of control', 66),
  ('CCc1nc(-c2cccc(C)c2)c(-c2ccnc(NC(=O)c3ccccc3)c2)s1', 'kinase still bound, per cent of control', 96),
  ('CNC(=O)Nc1ccc(-c2nc(N3CC4CCC(C3)O4)c3cnn(C4CCC5(CC4)OCCO5)c3n2)cc1', 'kinase still bound, per cent of control', 100);

---

Biological target: EIF2AK2 (human)
Assay: KINOMEscan competition binding
Conditions: compound 10.0 µM
As shown below, each of these molecules has a reported kinase still bound, per cent of control value.
measured_parameter: kinase still bound, per cent of control (%)

INSERT INTO measurements (molecule, reported_result) VALUES
  ('COc1cc2ncnc(Nc3cccc(Cl)c3)c2cc1OC', 52),
  ('COc1cc(C)c(Sc2cnc(NC(=O)c3ccc(CNC(C)C(C)C)cc3)s2)cc1C(=O)N1CCN(C(C)=O)CC1 (stereo not given)', 100),
  ('CC(=O)c1c(C)c2cnc(Nc3ccc(N4CCNCC4)cn3)nc2n(C2CCCC2)c1=O', 30),
  ('CNC(=O)Nc1ccc(-c2nc(N3CC4CCC(C3)O4)c3cnn(C4CCC5(CC4)OCCO5)c3n2)cc1', 100),
  ('C=CC(=O)Nc1ccc(C(=O)c2sc(Nc3ccc(N4CCN(C)CC4)cc3OC)nc2N)cc1', 100);

---

Tested on: FLT3 (human), P36888 [D835Y]
Test: KINOMEscan competition binding
Settings: compound 10.0 µM
measured_parameter: kinase still bound, per cent of control (%)

INSERT INTO results (compound, measured_target, scale_unit, reported_result) VALUES
  ('OCCCNc1cc(-c2ccnc(Nc3cccc(Cl)c3)n2)ccn1', 'FLT3 (human), P36888 [D835Y]', '%', 19),
  ('CC1=C(C(=O)Nc2cc3cn[nH]c3cc2F)C(c2ccc(C(F)(F)F)cc2)CC(=O)N1 (stereo not given)', 'FLT3 (human), P36888 [D835Y]', '%', 74),
  ('O=C(NOC[C@H](O)CO)c1ccc(F)c(F)c1Nc1ccc(I)cc1F', 'FLT3 (human), P36888 [D835Y]', '%', 100),
  ('O=C(Nc1cccc(Nc2ncc(Br)c(NCCc3cnc[nH]3)n2)c1)N1CCCC1', 'FLT3 (human), P36888 [D835Y]', '%', 0.1),
  ('N#Cc1c(NC(=O)c2cccc3ccccc23)sc2c1CCCC2', 'FLT3 (human), P36888 [D835Y]', '%', 80);

---

Molecular target: CDK4 CCND3 (human) (UniProt P11802+P30281)
Sequence (P11802 whole entry, looked up): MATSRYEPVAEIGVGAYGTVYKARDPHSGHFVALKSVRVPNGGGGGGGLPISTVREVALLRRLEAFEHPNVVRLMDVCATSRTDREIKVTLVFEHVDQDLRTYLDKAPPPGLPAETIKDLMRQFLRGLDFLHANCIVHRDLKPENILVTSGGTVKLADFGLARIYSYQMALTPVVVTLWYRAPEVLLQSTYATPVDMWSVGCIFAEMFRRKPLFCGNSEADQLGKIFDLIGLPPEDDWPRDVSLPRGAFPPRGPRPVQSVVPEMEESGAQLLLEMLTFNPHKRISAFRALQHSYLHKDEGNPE
Sequence (P30281 whole entry, looked up): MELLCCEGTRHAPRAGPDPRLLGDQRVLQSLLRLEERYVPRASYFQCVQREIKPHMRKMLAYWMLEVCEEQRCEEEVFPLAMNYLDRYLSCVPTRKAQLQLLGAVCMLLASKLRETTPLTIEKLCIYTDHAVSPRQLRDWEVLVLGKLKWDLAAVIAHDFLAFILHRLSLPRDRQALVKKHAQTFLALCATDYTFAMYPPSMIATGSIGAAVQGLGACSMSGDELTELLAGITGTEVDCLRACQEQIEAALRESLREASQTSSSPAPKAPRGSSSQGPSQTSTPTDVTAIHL
Test: KINOMEscan competition binding
Conditions: compound 10.0 µM
measured_parameter: kinase still bound, per cent of control (%)

INSERT INTO results (compound, measured_target, reported_result) VALUES
  ('C=CC(=O)Nc1ccc(C(=O)c2sc(Nc3ccc(N4CCN(C)CC4)cc3OC)nc2N)cc1', 'CDK4 CCND3 (human) (UniProt P11802+P30281)', 0.55),
  ('COc1cc2ncnc(Nc3cccc(Cl)c3)c2cc1OC', 'CDK4 CCND3 (human) (UniProt P11802+P30281)', 93),
  ('CNC(=O)Nc1ccc(-c2nc(N3CC4CCC(C3)O4)c3cnn(C4CCC5(CC4)OCCO5)c3n2)cc1', 'CDK4 CCND3 (human) (UniProt P11802+P30281)', 92),
  ('CCN(CCO)CCCOc1ccc2c(Nc3cc(CC(=O)Nc4cccc(F)c4)[nH]n3)ncnc2c1', 'CDK4 CCND3 (human) (UniProt P11802+P30281)', 100),
  ('CCc1nc(-c2cccc(C)c2)c(-c2ccnc(NC(=O)c3ccccc3)c2)s1', 'CDK4 CCND3 (human) (UniProt P11802+P30281)', 92),
  ('O=c1[nH]c2ccccc2n1C1CCN(Cc2ccc(-c3nc4cc5[nH]cnc5cc4nc3-c3ccccc3)cc2)CC1', 'CDK4 CCND3 (human) (UniProt P11802+P30281)', 100),
  ('CCN1CCN(Cc2ccc(NC(=O)c3ccc(C)c(/C=C/c4cnc5[nH]ccc5c4OC)c3)cc2C(F)(F)F)CC1', 'CDK4 CCND3 (human) (UniProt P11802+P30281)', 73),
  ('N#C/C(=C1/Nc2ccccc2S1)c1ccnc(NCCc2cccnc2)n1', 'CDK4 CCND3 (human) (UniProt P11802+P30281)', 49),
  ('CC1=C(C(=O)Nc2cc3cn[nH]c3cc2F)C(c2ccc(C(F)(F)F)cc2)CC(=O)N1 (centres undefined)', 'CDK4 CCND3 (human) (UniProt P11802+P30281)', 77);

---

Target: CSNK1G3 (human) (UniProt Q9Y6M4)
Sequence (Q9Y6M4 whole entry, looked up): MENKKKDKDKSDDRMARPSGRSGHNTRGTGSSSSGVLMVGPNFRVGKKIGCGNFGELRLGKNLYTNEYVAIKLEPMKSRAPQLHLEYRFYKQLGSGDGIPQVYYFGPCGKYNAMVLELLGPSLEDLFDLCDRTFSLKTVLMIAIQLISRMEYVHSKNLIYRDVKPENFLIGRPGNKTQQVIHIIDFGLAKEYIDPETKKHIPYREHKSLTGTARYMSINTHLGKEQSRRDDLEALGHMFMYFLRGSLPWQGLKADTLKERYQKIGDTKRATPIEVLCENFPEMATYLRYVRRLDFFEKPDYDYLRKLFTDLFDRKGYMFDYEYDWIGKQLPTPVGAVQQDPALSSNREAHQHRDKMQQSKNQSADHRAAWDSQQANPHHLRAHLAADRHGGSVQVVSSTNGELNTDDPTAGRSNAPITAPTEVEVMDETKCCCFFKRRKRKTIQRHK
Assay: KINOMEscan competition binding
Settings: compound 10.0 µM
measured_parameter: kinase still bound, per cent of control (%)

INSERT INTO results (compound, measured_parameter, reported_result) VALUES
  ('N#Cc1cc(-c2ccnc(Nc3ccc(-n4cnc(-c5cccnc5)n4)cc3)n2)cc(N2CCOCC2)c1', 'kinase still bound, per cent of control', 100),
  ('CCN1CCN(Cc2ccc(NC(=O)c3ccc(C)c(/C=C/c4cnc5[nH]ccc5c4OC)c3)cc2C(F)(F)F)CC1', 'kinase still bound, per cent of control', 48),
  ('CC1=C(C(=O)Nc2cc3cn[nH]c3cc2F)C(c2ccc(C(F)(F)F)cc2)CC(=O)N1 (stereo not given)', 'kinase still bound, per cent of control', 90),
  ('COc1cc(N2CCC(C(N)=O)CC2)ccc1Nc1nc(N)c(Cl)c(Nc2ccccc2S(=O)(=O)C(C)C)n1', 'kinase still bound, per cent of control', 100),
  ('CCCS(=O)(=O)Nc1ccc(F)c(C(=O)c2c[nH]c3ncc(Cl)cc23)c1F', 'kinase still bound, per cent of control', 79);

---

Molecular target: ABL2 (human)
Test: KINOMEscan competition binding
Conditions: compound 10.0 µM
As shown below, each of these compounds has a reported kinase still bound, per cent of control value.
measured_parameter: kinase still bound, per cent of control (%)

INSERT INTO measurements (mol_smiles, measured_parameter, reported_result) VALUES
  ('COc1ccc(N(C(=O)Oc2cc(C(=O)Nc3cccc(C(F)(F)F)c3)ccc2C)c2ccnc(Nc3ccc(N4CCN(C)CC4)cc3)n2)c(OC)c1', 'kinase still bound, per cent of control', 0.35),
  ('CCOc1cc(N2CCC(O)CC2)ccc1Nc1ncc2c(n1)N(C)c1ccccc1C(=O)N2C', 'kinase still bound, per cent of control', 100),
  ('CCN1CCN(Cc2ccc(NC(=O)c3ccc(C)c(/C=C/c4cnc5[nH]ccc5c4OC)c3)cc2C(F)(F)F)CC1', 'kinase still bound, per cent of control', 0),
  ('CNC(=O)Nc1ccc(-c2nc(N3CC4CCC(C3)O4)c3cnn(C4CCC5(CC4)OCCO5)c3n2)cc1', 'kinase still bound, per cent of control', 84);
